Cited source for all entries: patent US8859569B2

- Target entity: recombinant guanylate cyclase reporter cell line (Rattus norvegicus, UniProt P19686+P20595)
- Construct: expressed in transfected cells
- Sequence (P20595 whole entry): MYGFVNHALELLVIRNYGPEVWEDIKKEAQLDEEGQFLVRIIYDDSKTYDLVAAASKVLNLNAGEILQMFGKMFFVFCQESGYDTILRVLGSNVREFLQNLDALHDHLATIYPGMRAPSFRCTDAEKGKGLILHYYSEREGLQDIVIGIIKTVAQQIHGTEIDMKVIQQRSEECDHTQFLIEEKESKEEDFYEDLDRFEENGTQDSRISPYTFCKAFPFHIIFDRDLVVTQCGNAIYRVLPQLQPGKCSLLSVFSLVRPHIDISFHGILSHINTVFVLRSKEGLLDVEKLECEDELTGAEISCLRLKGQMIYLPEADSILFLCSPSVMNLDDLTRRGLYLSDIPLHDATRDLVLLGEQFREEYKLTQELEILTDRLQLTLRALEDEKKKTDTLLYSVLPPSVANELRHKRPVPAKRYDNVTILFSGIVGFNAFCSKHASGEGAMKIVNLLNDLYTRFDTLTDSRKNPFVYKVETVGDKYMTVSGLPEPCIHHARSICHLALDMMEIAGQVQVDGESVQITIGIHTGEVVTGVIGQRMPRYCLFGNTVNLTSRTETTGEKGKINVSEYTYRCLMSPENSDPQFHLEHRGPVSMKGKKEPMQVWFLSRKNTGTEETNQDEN
- Sequence (P19686 whole entry): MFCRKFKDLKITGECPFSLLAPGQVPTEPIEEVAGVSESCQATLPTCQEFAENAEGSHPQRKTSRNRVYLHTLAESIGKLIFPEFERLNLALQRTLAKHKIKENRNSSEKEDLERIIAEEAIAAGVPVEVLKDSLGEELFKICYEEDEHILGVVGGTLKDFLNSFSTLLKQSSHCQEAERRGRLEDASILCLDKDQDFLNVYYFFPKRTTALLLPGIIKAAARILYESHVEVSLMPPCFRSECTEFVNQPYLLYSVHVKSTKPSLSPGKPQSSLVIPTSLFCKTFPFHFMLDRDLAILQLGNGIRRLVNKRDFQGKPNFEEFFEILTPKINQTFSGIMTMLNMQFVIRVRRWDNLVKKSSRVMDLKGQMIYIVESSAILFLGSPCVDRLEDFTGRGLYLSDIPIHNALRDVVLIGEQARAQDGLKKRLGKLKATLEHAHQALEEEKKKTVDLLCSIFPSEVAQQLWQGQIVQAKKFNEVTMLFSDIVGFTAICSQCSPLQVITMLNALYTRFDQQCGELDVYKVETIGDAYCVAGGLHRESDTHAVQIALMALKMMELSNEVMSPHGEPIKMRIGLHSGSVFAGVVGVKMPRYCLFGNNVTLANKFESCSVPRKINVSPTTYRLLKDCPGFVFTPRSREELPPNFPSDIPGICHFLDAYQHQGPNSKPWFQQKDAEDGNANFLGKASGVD
- Assay explanation: Action on recombinant guanylate cyclase reporter cell line
- Format: cell-based
Parameter threshold = 0.1 μm. Response is criterion met when MEC (minimal effective concentration) meets or exceeds it, else criterion not met.

> print(dat)
                                 cpd.smiles  qualitative.label
1  CC1(C)C(=O)Nc2nc(-c3nn(Cc4ccccc4F)c4ncccc34)nc(NCC3CC3)c21  criterion not met
2  CC1(C)C(=O)Nc2nc(-c3nn(Cc4ccccc4F)c4ncc(F)cc34)nc(N3CC(F)C3)c21      criterion met
3  COCCNc1nc(-c2nn(Cc3ccccc3F)c3ncccc23)nc2c1C(C)(C)C(=O)N2  criterion not met
4  CC1(C)C(=O)Nc2nc(-c3nn(Cc4ccccc4F)c4ncccc34)nc(OCC(F)(F)F)c21      criterion met
5  Cc1ncc2c(-c3nc(NCCC(F)(F)F)c4c(n3)NC(=O)C4(C)C)nn(Cc3ccccc3F)c2n1      criterion met
6  CC1(C)C(=O)Nc2nc(-c3nn(Cc4ccccc4F)c4ncc(F)cc34)nc(O)c21      criterion met
7  CC1(C)C(=O)Nc2nc(-n3nc(Cc4ccccc4F)c4cc(F)ccc43)nc(OCCC(F)(F)F)c21      criterion met
8  CC(C)(N)CNc1nc(-c2nn(Cc3ccccc3F)c3ncc(F)cc23)nc2c1C(C)(C)C(=O)N2      criterion met
9  Cn1ccnc1CNc1nc(-c2nn(Cc3ccccc3F)c3ncccc23)nc2c1C(C)(C)C(=O)N2      criterion met

---

- Target entity: human phosphodiesterase 5 (PDE-5) (Homo sapiens, UniProt O76074)
Listed next: entries and their corresponding IC50.
Value type: IC50 (nM)

> print(dat)
                                 cpd.smiles                             target.entity  value.type  unit.annotation  censoring.operator  test.result
1  C[C@H](Nc1nc(-c2nn(Cc3ccccc3F)c3ncc(F)cc23)nc2c1C(C)(C)C(=O)N2)C1CC1  human phosphodiesterase 5 (PDE-5) (Homo sapiens, UniProt O76074)        IC50               nM                   =           82
2  CC1(C)C(=O)Nc2nc(-c3nn(Cc4ccccc4F)c4ncc(F)cc34)nc(NCCO)c21  human phosphodiesterase 5 (PDE-5) (Homo sapiens, UniProt O76074)        IC50               nM                   =            8
3  CC1(C)C(=O)Nc2nc(-c3nn(Cc4ncccc4F)c4ncc(F)cc34)nc(NCC(F)(F)F)c21  human phosphodiesterase 5 (PDE-5) (Homo sapiens, UniProt O76074)        IC50               nM                   =           13
4  Cc1ncc2c(-c3nc(NCCC(F)(F)F)c4c(n3)NC(=O)C4(C)C)nn(Cc3ccccc3F)c2n1  human phosphodiesterase 5 (PDE-5) (Homo sapiens, UniProt O76074)        IC50               nM                   =           25
5  CC1(C)C(=O)Nc2nc(-c3nn(Cc4ccccc4F)c4ncccc34)nc(OCC(F)(F)F)c21  human phosphodiesterase 5 (PDE-5) (Homo sapiens, UniProt O76074)        IC50               nM                   =          250
6  CC1(C)C(=O)Nc2nc(-c3nn(Cc4ccccc4F)c4ncccc34)nc(-n3ccc(C(F)(F)F)n3)c21  human phosphodiesterase 5 (PDE-5) (Homo sapiens, UniProt O76074)        IC50               nM                   >         4000
7  CC1(C)C(=O)Nc2nc(-c3nn(Cc4ccccc4F)c4ncccc34)nc(OCC3CC3)c21  human phosphodiesterase 5 (PDE-5) (Homo sapiens, UniProt O76074)        IC50               nM                   =          120

---

- Target entity: recombinant guanylate cyclase reporter cell line (Rattus norvegicus, UniProt P19686+P20595)
- Construct: expressed in transfected cells
- Assay explanation: Action on recombinant guanylate cyclase reporter cell line
- Type: cell-based
Value type: MEC (minimal effective concentration)

> print(dat)
                                   molecule  test.result
1  CC1(C)C(=O)Nc2nc(-c3nn(Cc4ccccc4F)c4c3CCC4)nc(NCC(F)(F)F)c21 [Example 19]       0.3 μm
2  CC1(C)C(=O)Nc2nc(-c3nn(Cc4ccccc4F)c4ncc(F)cc34)nc(NCC(F)(F)F)c21 [Example 11]       0.3 μm
3  CCCOc1nc(-c2nn(Cc3ccccc3F)c3ncccc23)nc2c1C(C)(C)C(=O)N2 [Example 111]       0.3 μm

---

As shown below, each of these molecules has a reported MEC (minimal effective concentration) value.
- Target entity: recombinant guanylate cyclase reporter cell line (Rattus norvegicus, UniProt P19686+P20595)
- Construct: expressed in transfected cells
- Assay explanation: Action on recombinant guanylate cyclase reporter cell line
- Assay type: cell-based
Value type: MEC (minimal effective concentration)

> print(dat)
                                   molecule  test.result
1  Cn1nccc1CNc1nc(-c2nn(Cc3ccccc3F)c3ncccc23)nc2c1C(C)(C)C(=O)N2 [Example 40]       0.1 μm
2  Cc1nccn1-c1nc(-c2nn(Cc3ccccc3F)c3ncccc23)nc2c1C(C)(C)C(=O)N2 [Example 62]       0.1 μm
3  CC1(C)C(=O)Nc2nc(-c3nn(Cc4ccccc4F)c4ncccc34)nc(NC[C@@H]3CCOC3)c21 [Example 45]       0.1 μm
4  Cn1cc(CNc2nc(-c3nn(Cc4ccccc4F)c4ncccc34)nc3c2C(C)(C)C(=O)N3)cn1 [Example 59]       0.1 μm
5  CC(=O)NC1CCN(c2nc(-c3nn(Cc4ccccc4F)c4ncccc34)nc3c2C(C)(C)C(=O)N3)C1 (centres unmarked) [Example 94]       0.1 μm
